- System: MS2 coat protein
- Assay Info: apparent KD of MS2 coat protein; designed switch direction (-1 OFF switch, 1 ON switch): -1; higher = weaker reporter binding
- Measurement Conditions: input ligand: none
Decision: apparent KD of MS2 coat protein >= 40 nM yields Y, all other cases yield N.

[
  {
    "Sequence Content": "UCCUCACAUGAGGAUCACCCAUGUUAGGAUAUCUUAGAGCGCGAAUGACAGUUCUUUAAGAGAAGGAACUGGGC [Exclusion 1 (MOD1.2 of Edarti)] (Eterna round: R97, puzzle: Exclusion 1)",
    "Classification": "N"
  },
  {
    "Sequence Content": "UAUGGUUAAGUCAGGAUAUGCUCGUAGAGGUCUAUGCAGAAGGGACAUGAGGAUCACCCAUGUAUGGUCGUGUU [Ex4 #67] (Eterna round: R97, puzzle: Brourd's mod of Exclusion 4)",
    "Classification": "Y"
  },
  {
    "Sequence Content": "GCGUACUGAGGAUAUACAUGAGGAUCACCCAUGUAACACAGCAUAUAUAGAUAUUUUUGUAGAAGGCAGUAUGC [JR_Ex3_Sub057] (Eterna round: R97, puzzle: Exclusion 3)",
    "Classification": "N"
  },
  {
    "Sequence Content": "CGUCUGUAAGGAUAUGGUUGCAUCAACAUGAGGAUCACCCAUGUUACAUGGGACUAGUGAUUAGAAGGUACGAACG [EX5 #57] (Eterna round: R97, puzzle: Exclusion 5)",
    "Classification": "Y"
  }
]

###

- Test system: K4 kissing-loop RNA reporter;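 further: bound reporter read as fluorescence of individual clusters on recovered sequencing chips by microscopy, with normalized cluster intensities fitted with a binding model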
- Assay Info: apparent KD of K4 kissing-loop reporter; higher = weaker reporter binding
- Measurement Conditions: Eterna round: R107; input ligand: FMN 200 uM
Entry flag: Fulfilled if apparent KD of K4 kissing-loop reporter reaches 200 nM; Not fulfilled if it does not.

[
  {
    "Sequence Content": "AGACUACCACACUGUCAAUAGACAGUGAGCUAGGAUAUGCUGAUAAGCAGAAGGAGUGAUGUUCCCAGGUAGUCAAUAAAAUAAU [FmnAX 13 G29+C66]",
    "Classification": "Fulfilled"
  },
  {
    "Sequence Content": "AACUCUCAGACACUUGAGUGAUGUUCAGGCCGAGGACCGGUACGGCCGCCACUCGGGUCUGAGAGAGGUUAUCAAAGAUAGCCAA [Omei KL Tryp A SS A v5]",
    "Classification": "Fulfilled"
  },
  {
    "Sequence Content": "GAAUAAUAAGUAGCAGUGAUGUUGCUACUACGAGGACCGGUACGGCCGCCACUCGAAUACGAGUGGACACUGCUACUACCACUCG [(H1)-(H2)-(Trp1)-(Trp2)-(T)'-(H)'-(T)''_Design8]",
    "Classification": "Not fulfilled"
  },
  {
    "Sequence Content": "UUAACCAACAGCGAUACCAGCGUGGAGUGAUGUUCCGAGGAUCGGAGUGAUGUUCCGAAGCGCCCUUGGCAGCGCAGAAGCGCAA [Exclusion Theophylline B GF8]",
    "Classification": "Not fulfilled"
  },
  {
    "Sequence Content": "AAUUUAUUAUCUGAUACCAGACUUUUUCUUGUAUAUAAGUCAAGUGAUGUUUGACUUUUAGUCCCUUGGCAGCAGUAUUUUUUAA [JR_Nu_SSTheophyB_Sub027]",
    "Classification": "Not fulfilled"
  },
  {
    "Sequence Content": "UGUGUUGUUGUGAUGUUUGGUGUUGUAGGGCAGGAUAUCGUAGAGGCGAGAAGGGCUUGUGGGCGGUAUGAGUGAUGUUUGUAGG [cfiuxmullin]",
    "Classification": "Not fulfilled"
  }
]

###

- Test system: MS2 coat protein
- Assay Info: apparent KD of MS2 coat protein; designed switch direction (-1 OFF switch, 1 ON switch): -1; higher = weaker reporter binding
- Measurement Conditions: Eterna round: R95; input ligand: microRNA oligo, concentration not stated
I would appreciate it if you labelled entries condition met when apparent KD of MS2 coat protein is 30 nM or higher, otherwise condition not met.

[
  {
    "Sequence Content": "UUUUAACAUGAGGAUCACCCAUGUGAGGAUAUCGAAAUUUAUAUUUAUAUUAAUUAAUCGAGAAGGCACAUUUU [JMF 84] (puzzle: Exclusion 1)",
    "Classification": "condition met"
  },
  {
    "Sequence Content": "GAUUAUGCGAGCUUUAGGGACAUGAGGAUCACCCAUGUUCGUCUUGUUGAUCUAGGUGCACUAACAUACCUAAAUCU [JMF 33] (puzzle: Sensor v3, turn-off variant 1)",
    "Classification": "condition not met"
  },
  {
    "Sequence Content": "CCCUCACAUGAGGAUCACCCAUGUCAGGAUAUCUAGUCAGACAGUGUAGCACUAAUGAAGAGAAGGGACGUAUG [Edtetidi] (puzzle: Exclusion 1)",
    "Classification": "condition not met"
  },
  {
    "Sequence Content": "AGAGUACAUGAGGAUCACCCAUGUCAGGAUAUGCAGAAGAAGAAGAAGAGAAGAGAGAGCAGAAGGGACAAGAG [Ex 1 M2] (puzzle: Exclusion 1)",
    "Classification": "condition not met"
  },
  {
    "Sequence Content": "CUUAGACAUGAGGAUCACCCAUGUGAGGAUAUGAUGCGAAUGAAGAAAGAAGGAAGCAUCAGAAGGCACAUAUG [Mat - Mod of Hyphema D26] (puzzle: Exclusion 1)",
    "Classification": "condition met"
  },
  {
    "Sequence Content": "AAAUUCUGAGGAUAUCGAUGUUUGUACAUGAGGAUCACCCAUGUCCUUUUUAUUUUUUCUCGAGAAGGCAGUGUAU [JR_E5_Sub100] (puzzle: Exclusion 5)",
    "Classification": "condition met"
  },
  {
    "Sequence Content": "CAGUACUGAGGAUAUACAUGAGGAUCACCCAUGUGCUUUAGCUAGGAUACUAGCACCAGUAGAAGGCAGUACUG [Fiskers Ex 3 828 mod 12] (puzzle: Exclusion 3)",
    "Classification": "condition not met"
  },
  {
    "Sequence Content": "ACUAGAUGAGGAUAUGCAUAUUUUCGUGUUCUUCUAGAUUAACAUGAGGAUCACCCAUGUAGAAGGCGUCUGGA [Exclusion 2 - 18] (puzzle: Exclusion 2)",
    "Classification": "condition not met"
  },
  {
    "Sequence Content": "GGUCUGCGAGGAUAUACAUGAGGAUCACCCAUGUGCGAGAUACUAGUGAGGUCGGUUGGUAGAAGGCGCGGACG [JL-ex3-2.07 salish99 mod] (puzzle: Exclusion 3)",
    "Classification": "condition met"
  },
  {
    "Sequence Content": "CCGGAAUUACAGGAUAUAGGAGUCGAUAGACACCUAGAAGGGUAGACAUGAGGAUCACCCAUGUGUCCUACCGG [Fiskers Ex 6 - 85] (puzzle: Exclusion 6)",
    "Classification": "condition met"
  },
  {
    "Sequence Content": "GUGGUGGGUUUUCCGAGUGACAUGAGGAUCACCCAUGUGUUAGUUUGAGGUAUCAAGCGAAUGGCUCGUCUUAUGUG [JR_SV3TOV1_Sub046] (puzzle: Sensor v3, turn-off variant 1)",
    "Classification": "condition not met"
  },
  {
    "Sequence Content": "CUGAGGUAGCGGUCCUAUGACAUGAGGAUCACCCAUGUACCUUGCUUUGAGCUUUAAGCUCGUCUUAUGAUUCUCGG [Mat - Sensor v3 - turn-off var 1 - JL Mod - D44] (puzzle: Sensor v3, turn-off variant 1)",
    "Classification": "condition met"
  },
  {
    "Sequence Content": "AGUAGUAGUAUCCGAUCUUACAUGAGGAUCACCCAUGUAGCUAGACGUGCACGCGAUGCUCGUCAGACUACCAGAUG [salish99_TOv1_r3_051] (puzzle: Sensor v3, turn-off variant 1)",
    "Classification": "condition met"
  },
  {
    "Sequence Content": "GGGCUGUCAGGAUAUACAUGAGGAUCACCCAUGUCGAGCUAUGAUAGGGCAAGAGUAGGUAGAAGGGACGAGAG [JR_Exclu3_Sub043] (puzzle: Exclusion 3)",
    "Classification": "condition met"
  },
  {
    "Sequence Content": "UCGCUGCGAGGAUAUACGUGCGCGCGCGCGCGCGCGCGCGUACAUGAGGAUCACCCAUGUAGAAGGCGCGCUGC [Apr-15 SS2-1] (puzzle: Exclusion 2)",
    "Classification": "condition not met"
  },
  {
    "Sequence Content": "CUCUUGUUAGGAUAUCAAACCGGCGGCGGAGCCGCCGGUAGUGAGAAGGGACAUGAGGAUCACCCAUGUAAGAA [Isarcedi] (puzzle: Exclusion 4)",
    "Classification": "condition met"
  },
  {
    "Sequence Content": "CGGAUGUGAGGAUAUACAUGAGGAUCACCCAUGUGUGCCAGCUAGCUGACUGGCACUUGUAGAAGGCACGUCUG [JL-ex3-2.14 Brourd mod] (puzzle: Exclusion 3)",
    "Classification": "condition not met"
  },
  {
    "Sequence Content": "GGAAAGGUAGGAUAUACGAAGAAAAAGGGUAGAAGAAAAACACAUGAGGAUCACCCAUGUAGAAGGACCAAAGG [Mat - Exclusion 2 - Mod of my Tesla design - D2] (puzzle: Exclusion 2)",
    "Classification": "condition not met"
  },
  {
    "Sequence Content": "AAAUAAUAGAUAAAAUAAUACAUGAGGAUCACCCAUGUGGGAUGCUGAGGGUGAUACAAGCUUUUUGCUCGUCUUAU (puzzle: Sensor v3, turn-off variant 1)",
    "Classification": "condition not met"
  },
  {
    "Sequence Content": "GUAGAGUAAGGAUAUGUUGAAUAGGAUAGAAUGGUUAGAAAACAGAAGGUACAUGAGGAUCACCCAUGUAAUGU [Excluse me!!!! 11 - Jieux - Exclusion 4] (puzzle: Exclusion 4)",
    "Classification": "condition not met"
  },
  {
    "Sequence Content": "CUUCGACAUGAGGAUCACCCAUGUCAGGAUAUUGUGUAUCGGGUUUUUUACGGAUAGGCAAGAAGGGAUGUGUG [LRO-Excl1-06] (puzzle: Exclusion 1)",
    "Classification": "condition met"
  }
]
